Recorded values, source PubChem BioAssay AID266.

System: Nude mice, LX-1 lung xenograft intrarenal, tumor weight T/C
EXPERIMENTAL_DETAILS: NCI In Vivo Anticancer Drug Screen. Data for tumor model Human Lung LX-1 Xenograft (intrarenal inoculation) in NU/NU BALB/C (nude) mice
CONDITION_CONTEXT: endpoint: mean tumor weight change; dose: 50.0 mg/kg/injection; schedule: Q01DX010 (sc); vehicle: Klucel (hydroxypropylcellulose) (HPC); higher = larger tumour
Results filed as inconclusive are left out.
VALUE_KIND: T/C

Reference set (6 entries):
MOLECULE	T/C
C[C@]12C=CC(=O)C=C1CC[C@@H]1[C@@H]2[C@@H](O)C[C@@]2(C)[C@H]1CC[C@]2(O)C(=O)CO	63 % of control
CC1=C2CC(C)(C)/C=C\C(=O)/C(C)=C\C3=C[C@H](C)C[C@]3(O2)C1=O	33 % of control
CC(=O)O[C@H]1C(=O)[C@@]2(C)[C@H]([C@H](OC(=O)c3ccccc3)[C@]3(O)C[C@H](OC(=O)[C@H](O)[C@@H](NC(=O)c4ccccc4)c4ccccc4)C(C)=C1C3(C)C)[C@]1(OC(C)=O)CO[C@@H]1C[C@@H]2O	63 % of control
Nc1nc(=S)c2ncn(C3CC(O)C(CO)O3)c2[nH]1 (configuration not stated)	152 % of control
COc1cc2cc(c1Cl)N(C)C(=O)C[C@H](OC(=O)[C@H](C)N(C)C(C)=O)[C@]1(C)O[C@H]1[C@H](C)[C@@H]1C[C@@](O)(NC(=O)O1)[C@H](OC)C=C/C=C(\C)C2	72 % of control
O=C(CCBr)N1CCN(C(=O)CCBr)CC1	48 % of control

Next item in the queue.
Lookup: Please supply the value of reported T/C for the item "C/C(=C\c1ccccc1)[N+](=O)[O-]"
Found: 96 % of control

----------
Listing of entries alongside the reported T/C.
System: Nude mice, LX-1 lung xenograft intrarenal, tumor weight T/C
EXPERIMENTAL_DETAILS: NCI In Vivo Anticancer Drug Screen. Data for tumor model Human Lung LX-1 Xenograft (intrarenal inoculation) in NU/NU BALB/C (nude) mice
CONDITION_CONTEXT: endpoint: mean tumor weight change; dose: 50.0 mg/kg/injection; schedule: Q01DX010 (sc); vehicle: saline with Tween-80; higher = larger tumour
Records with an inconclusive call do not appear.

Reference set (5 entries):
COMPOUND	VALUE_MEASURED
COc1ccc(S(=O)(=O)N/N=C/C(=O)O)cc1	210 % of control
CC1(CO)C(O)CCC2(C)C1CCC1CC3CC12CCC3(O)CO (configuration not stated)	86 % of control
CN(N=O)C(N)=O	-69 % of control
CC1=C(/C=C/C(C)=C/C=C/C(C)=C/C(=O)O)C(C)(C)CCC1	75 % of control
COc1ccc(OC)c(/C=C/c2ccnc3ccccc23)c1	65 % of control

Lookup: Please supply the value of reported T/C for the item "COc1cc(C[C@H]2c3cc(OC)c(OC)cc3CCN2C)c(Oc2cc3c(cc2OC)-c2c(OC)c(OC)cc4c2[C@H](C3)N(C)CC4)cc1OC"
Found: 85 % of control

Lookup: Please supply the value of reported T/C for the item "COC1=C(OC)C(=O)C(C/C=C(\C)CC/C=C(\C)CC/C=C(\C)CC/C=C(\C)CC/C=C(\C)CC/C=C(\C)CC/C=C(\C)CC/C=C(\C)CC/C=C(\C)CCC=C(C)C)=C(C)C1=O"
Found: 91 % of control
